B1: ZNF8 (parent)
chain: VHVIGVEEPSVGASMLFDIREST

# Variants of: B1
# assayMethodText: protein stability index of a GFP-peptide fusion (GPS, HEK-293T) (PSI 1-6); higher = more stable;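 note: lentivirally expressed fusions sorted by FACS into six bins by GFP to DsRed ratio, PSI derived from sequencing read proportions per bin multiplied by bin number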
# measurementSetup: c terminus: native
Please assign a class to every record based on measured protein stability index, with ranges group A (below 2), group B (2 to below 3), group C (3 or more)

Q: GET /class?item= A13D
Ans: group B

Q: Which class is correct for the following variant? F17D
Ans: group C

Q: Any idea which band V3G is in?
Ans: group C

Q: Assign a bin to G5E
Ans: group B

Q: Hi there! Could you help me figure out the category for I19H please?
Ans: group C

Q: Form field 'band' for T23V
Ans: group B

Q: Would you mind sorting F17G into the appropriate category?
Ans: group C

Q: Class label required: H2V
Ans: group A

Q: # bin label for V1K
Ans: group C

Q: Where would S10A land among the classes by reported protein stability index?
Ans: group B

Q: Input E21Q ; output its category
Ans: group A

Q: Into which bin does this variant go? P9Y
Ans: group B

Q: Any idea which band I19K is in?
Ans: group C

Q: # classify by protein stability index band: A13W
Ans: group C

Q: // return the class label for S10E
Ans: group B

Q: In plain terms, what class is P9K ?
Ans: group B

Q: Each variant maps to one class by protein stability index. Which class for V1M ?
Ans: group B

Q: Bin? F17E
Ans: group C

Q: # bin lookup: classify I4P by its protein stability index
Ans: group C

Q: Kindly identify the class of V11E .
Ans: group B

Q: Hey, which category is T23K in, do you know?
Ans: group B

Q: # bin label for V11H
Ans: group B

Q: Bin? V6G
Ans: group B

Q: For the record A13I , report the class its protein stability index corresponds to.
Ans: group B

Q: Which bin should I file I4H under?
Ans: group B

Q: Which of the defined bands does the recorded protein stability index of M15A sit within?
Ans: group B

Q: Consider F17Q . To which protein stability index class does it belong?
Ans: group C

Q: // return the class label for E8F
Ans: group B

Q: Into which category would you place G12C ?
Ans: group A

Q: Band for L16Y ?
Ans: group B

Q: Dear colleague, I would appreciate it if you could identify the bin for L16Q and reply at your convenience.
Ans: group B

Q: # bin label for V6N
Ans: group C

Q: State the class of the variant shown: M15E
Ans: group C

Q: Exam item: assign S14I to the correct category.
Ans: group C

Q: Band assignment needed for G12R please.
Ans: group B

Q: For S22E , which protein stability index bin applies?
Ans: group B

Q: Bin? V1T
Ans: group C

Q: Which bin should I file M15P under?
Ans: group B

Q: Could you tell me which band E21F belongs to?
Ans: group B

Q: Field: class (protein stability index) — entry: T23Y
Ans: group A

Q: Please let me know in which category the item S14R belongs.
Ans: group A

Q: State the class of the variant shown: M15T
Ans: group B

Q: Band of R20N ?
Ans: group C

Q: Which protein stability index band matches E7P ?
Ans: group B

Q: Just checking, what class would you give I4C here?
Ans: group B

Q: Band for L16K ?
Ans: group B

Q: # bin label for R20A
Ans: group A

Q: Input R20C ; output its category
Ans: group A

Q: Entry E7Q belongs to which category?
Ans: group A

Q: Which protein stability index category applies to S14L here?
Ans: group B

Q: Place this variant in its band: E7L
Ans: group A

Q: For the record R20G , report the class its protein stability index corresponds to.
Ans: group B

Q: Kindly state the category for this variant: V3F
Ans: group A

Q: State the band of I19P
Ans: group C

Q: // bin(item) where item = G12V
Ans: group A

Q: Just checking, what class would you give D18V here?
Ans: group B

Q: Kindly identify the class of I19W .
Ans: group A

Q: Category of G5S , please.
Ans: group A

Q: Record V6Y — which class?
Ans: group A

Q: Which band does V11T fall in?
Ans: group B

Q: Sort S22K into one of the categories.
Ans: group B

Q: Please let me know in which category the item V11R belongs.
Ans: group A

Q: Field: class (protein stability index) — entry: G12T
Ans: group A

Q: Entry S10Q belongs to which category?
Ans: group B

Q: Hey, which category is S14N in, do you know?
Ans: group B

Q: Which category does the recorded protein stability index put F17P in?
Ans: group C

Q: Form field 'band' for P9Q
Ans: group B

Q: Categorize the following entry: V11P
Ans: group B

Q: Please let me know in which category the item V1P belongs.
Ans: group C

Q: Which category does the recorded protein stability index put E21G in?
Ans: group B

Q: Which class holds R20F ?
Ans: group B

Q: Returns: class label. Input: E21R
Ans: group A

Q: Band assignment needed for V6I please.
Ans: group A
